Assay: in vivo
Details: C57BL/6, mouse, po, 30 mg/kg
measure: Tmax (h)
Report as a plain number; the unit h is understood.

Write down Tmax measured for item CCc1ccc(CCOc2ccc(CC3SC(=O)NC3=O)cc2)nc1 (stereo not shown) [pioglitazone, Pioglitazone]
1

====

Experiment: in vivo
Settings: C57BL/6, mouse, po, 30 mg/kg
measure: AUC(0-inf) (µg·h/mL)
Report the value in µg·h/mL with no unit label.

Read the entry CCc1ccc(CCOc2ccc(CC3SC(=O)NC3=O)cc2)nc1 (stereo not shown) [pioglitazone, Pioglitazone] and write its reported AUC(0-inf).
262

====

Assay: in vivo
Conditions: C57BL/6, mouse, po, 30 mg/kg
measure: Cmax (µg/mL)
Respond numerically; units are µg/mL and should not be typed.

Specify reported Cmax for the compound shown: CCc1ccc(CCOc2ccc(CC3SC(=O)NC3=O)cc2)nc1 (stereo not shown)
53.5
